Can you tell me Inhibition for the items I'm about to list?
tested on: Plasmodium falciparum; assay: GSK_TCMDC: Inhibition of Plasmodium falciparum 3D7 in whole red blood cells, using parasite LDH activity as an index of growth. Test compounds present at 2uM; format: functional
All answers are understood in %, so give the number only.

Query block: Which value of Inhibition has been reported for "CC(C)(C)c1ccc2nccc(Nc3cccc(O)c3)c2c1" in the records?
Result block: 99

Query block: Which value of Inhibition has been reported for "Cl.O=C(Nc1cccc(C2=NCCCN2)c1)Nc1cccc(C2=NCCCN2)c1" in the records?
Result block: 81

Query block: Which value of Inhibition has been reported for CCC(C)NS(=O)(=O)c1ccc2nc(Nc3ccc(C)c(Cl)c3)n([C@H](C)C(C)(C)C)c2c1 (some centres undefined) in the records?
Result block: 98

Query block: Which value of Inhibition has been reported for "COc1ccc2nc(C)cc(N/N=C/c3ccc([N+](=O)[O-])cc3)c2c1" in the records?
Result block: 100

Data origin: ChEMBL document CHEMBL1157539
